testedTarget: TRAP1 enzyme (Homo sapiens, UniProt Q12931)
Construct: 150 nM Trap1 enzyme was incubated with various concentrations of the test compound
testProtocol: ADP Glo assay of TRAP1 ATPase activity
Format: biochemical
experimentalContext: 1 h; compound concentration 50 μM; read-out: ADP-Glo Percent Activation at 50 μM
parameter: activation at 50 µM

// worked examples, activation at 50 µM included
mol	testedTarget	activation at 50 µM
COc1ncc(NC(=O)c2cn(C)nc2C(F)F)cc1S(=O)(=O)Nc1c(C)cccc1C	TRAP1 enzyme (Homo sapiens, UniProt Q12931)	120 to 150%
COc1ncc(NC(=O)c2nn(C)c(C)c2Cl)cc1S(=O)(=O)Nc1c(C)cccc1C	TRAP1 enzyme (Homo sapiens, UniProt Q12931)	181 to 352%
CCn1cncc1C(=O)Nc1cnc(OC)c(S(=O)(=O)Nc2c(C)cccc2C)c1	TRAP1 enzyme (Homo sapiens, UniProt Q12931)	120 to 150%

Lab request: please report activation at 50 µM under test system TRAP1 enzyme (Homo sapiens, UniProt Q12931) for COc1ncc(NC(=O)c2cnn(C)c2C(F)(F)F)cc1S(=O)(=O)Nc1c(C)cccc1C
151 to 180%

###

Reported Emax values follow for various compounds
testedTarget: TRAP1 enzyme (Homo sapiens, UniProt Q12931)
Construct: 150 nM Trap1 enzyme was incubated with various concentrations of the test compound
Sequence (Q12931 60-704): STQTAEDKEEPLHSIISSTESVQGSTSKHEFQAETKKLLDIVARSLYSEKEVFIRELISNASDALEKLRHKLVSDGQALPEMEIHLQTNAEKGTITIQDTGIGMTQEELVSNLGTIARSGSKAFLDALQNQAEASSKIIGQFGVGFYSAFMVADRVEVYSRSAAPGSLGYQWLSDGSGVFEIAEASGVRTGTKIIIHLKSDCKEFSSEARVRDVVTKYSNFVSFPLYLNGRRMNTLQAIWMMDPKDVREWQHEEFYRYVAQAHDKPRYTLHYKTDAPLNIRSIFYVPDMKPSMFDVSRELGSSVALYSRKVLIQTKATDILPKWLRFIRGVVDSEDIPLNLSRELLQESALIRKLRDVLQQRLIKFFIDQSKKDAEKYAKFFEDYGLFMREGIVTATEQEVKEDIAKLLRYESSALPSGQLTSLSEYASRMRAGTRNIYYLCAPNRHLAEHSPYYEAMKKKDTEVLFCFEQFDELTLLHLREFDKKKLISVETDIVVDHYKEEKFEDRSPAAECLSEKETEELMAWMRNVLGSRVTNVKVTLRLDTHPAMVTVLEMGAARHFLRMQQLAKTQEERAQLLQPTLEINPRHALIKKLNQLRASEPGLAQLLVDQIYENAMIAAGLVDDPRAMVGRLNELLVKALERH
testProtocol: ADP Glo assay of TRAP1 ATPase activity
Assay type: biochemical
experimentalContext: maximal percent activation; read-out: ADP GLO DRC: Mean Emax

// worked examples, Emax included
mol	Emax
COc1cc(NS(=O)(=O)c2cc(NC(=O)c3csc(-c4ccccc4)n3)cnc2OC)ccn1	119 to 159%
COc1ncc(NC(=O)c2ncoc2C(C)C)cc1S(=O)(=O)Nc1ccc(Cl)cc1	160 to 199%
COc1ncc(NC(=O)c2cccc3c2OC(C)(C)C3)cc1S(=O)(=O)Nc1c(C)cccc1C	200 to 300%
COc1ncc(NC(=O)c2ncc(-c3ccccc3)o2)cc1S(=O)(=O)Nc1c(Cl)cccc1Cl	160 to 199%
COc1ncc(NC(=O)c2ncc(-c3ccccc3)o2)cc1S(=O)(=O)Nc1nc(C(F)(F)F)ccc1C	119 to 159%
COc1ncc(NC(=O)c2csc(-c3ccccc3)n2)cc1S(=O)(=O)Nc1cc(C)no1	119 to 159%

State the recorded Emax for this entry: COc1ncc(NC(=O)c2csc(-c3ccccc3)n2)cc1S(=O)(=O)Nc1c(C(F)(F)F)cccc1C(F)(F)F
200 to 300%

State the recorded Emax for this entry: COc1ncc(NC(=O)c2coc(-c3ccccc3)n2)cc1S(=O)(=O)Nc1cc(C(F)(F)F)n[nH]1
200 to 300%

State the recorded Emax for this entry: COc1ncc(NC(=O)c2scc(C)c2Cl)cc1S(=O)(=O)Nc1c(C)cccc1C
160 to 199%

State the recorded Emax for this entry: COc1ncc(NC(=O)c2csc(-c3cccc(Cl)n3)n2)cc1S(=O)(=O)Nc1c(C)cccc1C
160 to 199%

State the recorded Emax for this entry: COc1ncc(NC(=O)c2csc(-c3ccccc3)n2)cc1S(=O)(=O)Nc1c(C)cccc1O
119 to 159%

State the recorded Emax for this entry: COc1ncc(NC(=O)c2noc3ccccc23)cc1S(=O)(=O)Nc1c(C)cccc1C
200 to 300%

State the recorded Emax for this entry: COc1ncc(NC(=O)c2coc(-c3cccnc3)n2)cc1S(=O)(=O)Nc1c(C)cccc1C
200 to 300%
